# reported growth; entries follow
# Tested on: NCI-H460 lung
# assay.summary: NCI-60 one-dose screen, 48 h (100 = growth as untreated, 0 = no growth, -100 = all killed)
# protocol.conditions: 10 µM unless noted
The panel holds about 83,000 compounds, 20% with a hit somewhere; the sample as a whole holds those more often. The source made the active and inactive calls. The calls were made as follows: active = growth percent below 10; inactive = the rest.

Supply measured growth of `COC(=O)[C@@H](C)C[C@H](Cc1ccccc1)NC(=O)c1csc(CC[C@H](C(C)C)N(C)C(=O)[C@@H](NC(=O)[C@H]2CCCCN2C)C(C)C)n1` in your reply.
6.76% (active)

Further cases:
Supply measured growth of `C[C@@]12CC[C@@H](O)C[C@@H]1CC[C@H]1[C@H]2CC[C@@]2(C)[C@H](c3ccc(=O)oc3)CC[C@@]12O` in your reply.
-78.7% (active)

Supply measured growth of `Nc1nnnc2nc[nH]c12` in your reply.
20.6% (inactive)

Supply measured growth of `CN1C(=O)C(=Cc2cn(CCCCCCn3c4ccccc4c(=O)c4ccccc43)c3ccccc23)C(=O)N(C)C1=O` in your reply.
85.1% (inactive)

Supply measured growth of `CC[C@H](C)[C@H](NC(=O)NC(C)(C)C)C(=O)N(C)[C@H](C[C@@H](OC(C)=O)c1nc(C(=O)N[C@@H](Cc2ccccc2)C[C@H](C)C(=O)OC)cs1)C(C)C` in your reply.
1.65% (active)

Supply measured growth of `Cc1cc(N(CCCl)CCCl)ccc1/C=N\NC(=O)c1ccncc1` in your reply.
25.9% (inactive)

Supply measured growth of `Cc1cc(C)cc(Nc2nc3c(s2)CC[C@@]2(C)C3=CC[C@@H]3[C@@H]2CC[C@]2(C)C(=O)CC[C@@H]32)c1` in your reply.
49.5% (inactive)

Supply measured growth of O=C(CC1(O)C(=O)N(Cc2ccccc2)c2ccccc21)c1ccc(C(=O)NCC2CCC3(CC2)OOC2(CCCCC2)OO3)cc1 (centres undefined) in your reply.
-51.4% (active)

Supply measured growth of `COc1ccc(O)c(CNC(=O)CN2CCCC2=O)c1` in your reply.
97.5% (inactive)

---

# Test system: PC-3 prostate
# assay.summary: NCI-60 one-dose screen, 48 h
# protocol.conditions: 10 µM unless noted
This is part of a sample that, as a whole, favours compounds with a hit. Of some 83,000 tested, about 20% had one in any assay. Active and inactive are the calls of the source. The calls were made as follows: active = growth percent below 10; inactive = the rest.
Parameter call: string, one of T for active, F for inactive

Known results for compounds:
Hey, what did the test say about CC(C)=CC1C(C(=O)OCc2cccc(Oc3ccccc3)c2)C1(C)C (stereo not given) ?
F

Hey, what did the test say about CC12CCC=CC1CCC1C2CCC2(C)C(c3ccc(=O)oc3)CCC12O (stereo not given) ?
T

Hey, what did the test say about COC(=O)C1OC(Oc2ccc(N(CCCl)CCCl)cc2)C(OC(C)=O)C(OC(C)=O)C1OC(C)=O (stereo not given) ?
F

Hey, what did the test say about `COC(=O)[C@@H](C)C[C@H](Cc1ccccc1)NC(=O)c1nc([C@@H](C[C@H](C(C)C)N(C)C(=O)[C@@H](NC(=O)[C@H]2CCCCN2C)C(C)C)OC(C)=O)sc1C` ?
F

Further cases:
Hey, what did the test say about `CC(=O)O[C@H]1C(=O)[C@@]2(C)[C@H]([C@H](OC(=O)c3ccccc3)[C@]3(O)C[C@H](OC(=O)[C@H](OC(=O)OC[C@@H]4COC(C)(C)O4)[C@@H](NC(=O)c4ccccc4)c4ccccc4)C(C)=C1C3(C)C)[C@]1(OC(C)=O)CO[C@@H]1C[C@@H]2O` ?
F

Hey, what did the test say about `O=C(Nc1ccc([N+](=O)[O-])cc1)C(Cl)(Cl)Cl` ?
F

Hey, what did the test say about C[S+]1C=Cc2ccccc2C1c1ccc(Cl)cc1 (stereo not given) ?
F

Hey, what did the test say about CCOC(=O)CCC(NC(=O)C(Cc1ccc(N(CCCl)CCCl)cc1)NC=O)C(=O)OCC (stereo not given) ?
F
